Target: 20S Human Erythrocyte Proteasome (HEP) (Homo sapiens, UniProt P20618+P28074)
Construct: 20S Human Erythrocyte Proteasome (HEP), purchased from Immatics Biotechnologies Inc
Experiment: Chymotrypsin-like activity of 20S Human Erythrocyte Proteasome (HEP), IC50 determination
Details: assay of Example C, inhibition of HEP
pIC50: −log10 of the molar value.
ASSAY READOUT: pIC50

Example molecules with recorded pIC50:
[
  {
    "MOLECULE": "CC(C)C[C@H](NC(=O)[C@H](CCCNC(=N)N[N+](=O)[O-])NC(=O)C1CCCCC1C)B(O)O (stereo partly shown)",
    "pIC50": "> 8.00"
  },
  {
    "MOLECULE": "CCC(C)C(=O)N[C@@H](CCCNC(=N)N[N+](=O)[O-])C(=O)N[C@@H](CC(C)C)B(O)O (mixture of isomers)",
    "pIC50": "> 8.00"
  },
  {
    "MOLECULE": "Cc1ccc(OCC(=O)N[C@H](C(=O)N[C@@H](CC(C)C)B(O)O)[C@@H](C)O)cc1",
    "pIC50": "> 8.00"
  },
  {
    "MOLECULE": "CCCCCCCCCCS(=O)(=O)N[C@@H](CCCNC(=N)N[N+](=O)[O-])C(=O)N[C@@H](CC(C)C)B1O[C@@H]2C[C@@H]3C[C@@H](C3(C)C)[C@]2(C)O1",
    "pIC50": "> 8.00"
  },
  {
    "MOLECULE": "CC(C)C[C@H](NC(=O)[C@H](CCCNC(=N)N[N+](=O)[O-])NC(=O)CC1CC2CCC1C2)B(O)O (stereo partly shown)",
    "pIC50": "> 8.00"
  },
  {
    "MOLECULE": "CC(C)C[C@H](NC(=O)[C@@H](NC(=O)c1ccccc1)[C@@H](C)O)B1O[C@@H]2C[C@@H]3C[C@@H](C3(C)C)[C@]2(C)O1",
    "pIC50": "> 7.00"
  },
  {
    "MOLECULE": "CC(C)C[C@H](NC(=O)[C@H](CCCNC(=N)N[N+](=O)[O-])NC(=O)c1ccoc1)B(O)O",
    "pIC50": "> 8.00"
  },
  {
    "MOLECULE": "CCN(CC)c1ccc(C(=O)N[C@@H](CCCNC(=N)N[N+](=O)[O-])C(=O)N[C@@H](CC(C)C)B(O)O)cc1",
    "pIC50": "> 8.00"
  },
  {
    "MOLECULE": "CCCCc1ccc(C(=O)N[C@@H](CNC(=O)c2ccc(S(N)(=O)=O)cc2)C(=O)N[C@@H](CC(C)C)B(O)O)cc1",
    "pIC50": "> 8.00"
  },
  {
    "MOLECULE": "CCCCc1ccc(S(=O)(=O)N[C@@H](CCCNC(=N)N[N+](=O)[O-])C(=O)N[C@@H](CC(C)C)B2O[C@@H]3C[C@@H]4C[C@@H](C4(C)C)[C@]3(C)O2)cc1",
    "pIC50": "> 7.00"
  }
]

Record "COC(=O)CCCC(=O)N[C@@H](CCCNC(=N)N[N+](=O)[O-])C(=O)N[C@@H](CC(C)C)B(O)O" , field pIC50: > 8.00

Record "CC(C)C[C@H](NC(=O)[C@H](CCCNC(=N)N[N+](=O)[O-])NC(=O)COc1ccc2ccccc2c1)B1O[C@@H]2C[C@@H]3C[C@@H](C3(C)C)[C@]2(C)O1" , field pIC50: > 8.00

Record "CC(C)C[C@H](NC(=O)[C@H](CCCNC(=N)N[N+](=O)[O-])NC(=O)Cc1ccc(Br)cc1)B(O)O" , field pIC50: > 8.00

Every entry's value here was drawn from patent US8546608B2.
